# CONDITION: [M+H]+; instrument: TW; calibrated with polyalanine and drug standards
OBSERVED PROPERTY: collision cross section (N2) (Å²)
Write it as a number; the unit Å² goes unstated.

CC(=O)Oc1ccccc1C(=O)Oc1ccccc1C(=O)O [DIPLOSALSALATE]: 159.4
Cc1c(N)c(=O)n(-c2ccccc2)n1C [AMPYRONE]: 142.6
CCOC(=O)C1=C(C)NC(C)=C(C(=O)OC)C1c1cccc([N+](=O)[O-])c1 (stereo unspecified) [NITRENDIPINE]: 181.9
C/C=C1\[C@H]2C=C(C)C[C@]1(N)c1ccc(=O)[nH]c1C2 [HUPERZINE A]: 157.7
COc1cc(/C=C/C(=O)N2CCC=CC2=O)cc(OC)c1OC [PIPLARTINE]: 176.1
COc1ccc(-c2cc(=O)c3c(OC)c(OC)c(OC)cc3o2)cc1OC [SINENSETIN]: 186.4

Q: Which measured collision cross section (N2) value corresponds to C[C@H]1[C@H](NC(=O)/C(=N\OC(C)(C)C(=O)O)c2csc(N)n2)C(=O)N1S(=O)(=O)O [AZTREONAM] ?
A: 197.4

Q: For CCCCOc1ccc(CC(=O)NO)cc1 [BUFEXAMAC] then?
A: 161

Q: Now the same for NC(=O)N1c2ccccc2CC(=O)c2ccccc21 [OXCARBAZEPINE]
A: 152.7

Q: What do we get for O=c1cccc2ccc(O)c(O)c2c1O [3,4,6-trihydroxy-5H-benzo[a]cyclohepten-5-one] ?
A: 134.7

Q: C=CCSCC1Nc2cc(Cl)c(S(N)(=O)=O)cc2S(=O)(=O)N1 (stereo unspecified) [ALTHIAZIDE] ?
A: 181.5

Q: Another: COc1cc(O)ccc1C(C)=O [ISOPEONOL]
A: 128.6

Q: Query COc1cc([C@H]2Oc3cc([C@H]4Oc5cc(O)cc(O)c5C(=O)[C@@H]4O)ccc3O[C@@H]2CO)ccc1O [SILIBININ] next
A: 213.6

* * *

# CONDITION: [M+H]+; instrument: TW; calibrated with polyalanine and drug standards
# collision cross section (N2) per record follows
Just so you know, I need the unit written after the number.

Observe how each entry below is paired with its result.
CC1=C(/C=C/C(C)=C/C=C/C(C)=C/C(=O)Nc2ccc(O)cc2)C(C)(C)CCC1 [FENRETINIDE]: 200.5 Å²
COC(=O)[C@@H]1OC(=O)C2OC23[C@@]1(C)CCC1[C@]2(C)C(C[C@@H](O)[C@]13C)C(C)(C)[C@H](OC(C)=O)C[C@@H]2OC(C)=O (stereo not given in full): 216.9 Å²
C[C@@H]1O[C@@H](O[C@H]2CC[C@]3(C=O)[C@H]4CC[C@]5(C)[C@@H](C6=CC(=O)OC6)CC[C@]5(O)[C@@H]4CC[C@]3(O)C2)[C@H](O)[C@H](O)[C@H]1O: 238.1 Å²
COC(=O)Nc1nc2ccc(S(=O)c3ccccc3)cc2[nH]1 (stereo not given): 174.1 Å²
COc1ccc(-c2cc(=O)c3ccccc3o2)cc1: 152.1 Å²
Nc1ncnc2c1ncn2[C@H]1C[C@H](O)[C@@H](CO)O1: 154.6 Å²

Note: attention shifts to another entry.
Q: Recorded collision cross section (N2) for Cc1cc(=O)oc2cc(O)cc(O)c12 [5,7-DIHYDROXY-4-METHYLCOUMARIN] , please?
A: 134.4 Å²

* * *

# CONDITION: [M+Na]+; instrument: DT; single field, calibrated with ESI Low Concentration Tuning Mix (Agilent)
Parameter: collision cross section (N2). Scope: all listed entries.
Provide only the numeric value, understood in Å².

Nc1nc(=O)c2ncn([C@@H]3O[C@H](COP(=O)(O)OP(=O)(O)O[C@H]4O[C@H](CO)[C@@H](O)[C@H](O)[C@@H]4O)[C@@H](O)[C@H]3O)c2[nH]1 [GUANOSINE DIPHOSPHATE MANNOSE]: 222.3

Okay, now this compound:
Q: # input compound: "OC[C@@H](O)[C@@H](O)[C@H](O)[C@H](O)CO" ; wanted: its collision cross section (N2)
A: 141.1

* * *

# CONDITION: [M+H]+; instrument: DT; single field, calibrated with Agilent tune mix (Agilent)
Readings of collision cross section (N2) for the listed molecules
Quick note: give the figure in Å², leave out the unit.

Look over these answered cases.
CCCCC/C=C\C/C=C\C/C=C\C/C=C\CCCCCC(=O)O[C@H](COC(=O)CCCC/C=C\C/C=C\C/C=C\CCCCC)COP(=O)([O-])OCC[N+](C)(C)C: 293.6
CCCCCCCCCCCCC=CC[C@@H](O)[C@H](CO)NC(=O)CCCCCCCCCCCCCCCCCCCCCCC: 279.3
CCCCCCCCCCCCC=CC[C@@H](O)[C@H](CO[C@@H]1O[C@H](CO)[C@@H](O)C(O)C1O)NC(=O)CCCCCCCCCCCCCCCCCCCCC (stereo partly drawn): 295.1

Q: Need collision cross section (N2) of CCCCCCCCCCCCC=CC[C@@H](O)[C@H](CO[C@@H]1O[C@H](CO)[C@@H](O)C(O)C1O)NC(=O)CCCCCCCCCCCCCCCCC (stereo partly drawn) , thanks.
A: 284.1

Q: Would you mind doing CCCCCCCCCCCCC=CC[C@@H](O)[C@H](CO[C@@H]1O[C@H](CO)[C@@H](O)C(O)C1O)NC(=O)CCCCCCCCCCCCCCCCCCCCCCC (stereo partly drawn) as well?
A: 301.5

Q: Also CCCCCCCCCCCCCCCCCC(=O)OC[C@@H](O)COP(=O)(O)O[C@H]1C(O)C(O)C(O)[C@@H](O)C1O (stereo partly drawn) ?
A: 244.7

Q: Cool, now "CCCCC/C=C\C/C=C\CCCCCCCCCCCC(=O)O[C@H](COC(=O)CCCCCCC/C=C\C/C=C\CCCCC)COP(=O)(O)OC[C@H](N)C(=O)O"
A: 293.2

Q: Queued: "CCCCCC/C=C\CCCCCCCC/C=C\OC[C@H](COP(=O)([O-])OCC[N+](C)(C)C)OC(=O)CCCCCCC/C=C\CCCCCC"
A: 283.3

* * *

# CONDITION: [M+H]+; instrument: TW; calibrated with phosphatidylcholines (ESI+) and phosphatidylethanolamines (ESI-), doubly charged cardiolipins calibrated with poly-DL-…
OBSERVED PROPERTY: collision cross section (N2) (Å²)
Report as a plain number; the unit Å² is understood.

// solved cases for collision cross section (N2) follow
CCCCCCCCCCCCCC(=O)OC[C@@H](O)COP(=O)([O-])OCC[NH3+]: 206.14
CCCCCC/C=C\CCCCCCCC(=O)OCC(COP(=O)(O)OCCN)OC(=O)CCCCCCCCCCCCCCC (centres undefined): 268.72
CCCCCCCCCCCCCCCC(=O)OCC(COP(=O)(O)OCCN)OC(=O)CCCCCCCC1CC1CCCCCCCC (centres undefined): 279.52

Consider the record given below.
Q: Suppose we examine the molecule CCCCCC/C=C\CCCCCCCC(=O)OCC(COP(=O)(O)OCCN)OC(=O)CCCCCCCC1CC1CCCCCC (centres undefined) ; what collision cross section (N2) value has been reported?
A: 268.71

* * *

# CONDITION: [M+Na-2H]-; instrument: DT; single field, calibrated with ESI Low Concentration Tuning Mix (Agilent)
In this section we review reported collision cross section (N2) values for a set of molecules.
API: value field is a number in Å²; no unit string.

Nc1ncnc2c1ncn2[C@@H]1O[C@H](COP(=O)(O)OP(=O)(O)O)[C@@H](O)[C@H]1O [ADENOSINE 5'-DIPHOSPHATE]: 187.7
NC(CSCC(=O)O)C(=O)O (stereo not drawn): 136.7
O=C(O)CCCC[C@@H]1SC[C@@H]2NC(=O)N[C@@H]21: 152.9
O=C(O)CCCC(=O)C(=O)O [OXOADIPATE]: 132.2
O=c1nc[nH]c2nc[nH]c12: 134.4
N[C@@H](Cc1ccc(O)c([N+](=O)[O-])c1)C(=O)O: 147.7
Nc1ccn([C@@H]2O[C@H](COP(=O)(O)OP(=O)(O)OP(=O)(O)O)[C@@H](O)[C@H]2O)c(=O)n1 [CYTIDINE TRIPHOSPHATE]: 185

Moving on to another molecule below.
Q: Query: collision cross section (N2); subject: "Nc1nc(=O)c2ncn([C@@H]3O[C@@H]4COP(=O)(O)O[C@H]4[C@H]3O)c2[nH]1"
A: 169.7

* * *

Listed below: collision cross section (N2) values for each entry.
# CONDITION: [M+NH4]+; instrument: DT; single field, calibrated with Agilent tune mix (Agilent)
I only need the number, in Å², no unit after it.

Answered examples (3):
CCCC/C=C\C/C=C\CCCCCCCC(=O)O[C@@H](CO)COC(=O)CCCCCCCCCCCCCCCC [DG(34:2)]: 257.9
CC/C=C\C/C=C\C/C=C\C/C=C\CCCCC(=O)O[C@H](COC(=O)CCCCCCC/C=C\CCCCCCC)COC(=O)CCCCCCC/C=C\CCCCCCCCC [TG(54:6)]: 319.9
CC/C=C\C/C=C\C/C=C\C/C=C\C/C=C\CCCCCC(=O)OC[C@@H](COC(=O)CCCCCCCCCCCCCCC)OC(=O)CCC/C=C\C/C=C\C/C=C\C/C=C\C/C=C\CC [TG(58:10)]: 327.2

Q: Please report the recorded collision cross section (N2) for CCCCC/C=C\C/C=C\C/C=C\C/C=C\CCCCCC(=O)O[C@H](COC(=O)CCCCCCCCCCCCC)COP(=O)(O)O [PA(36:4)] .
A: 272.4

Q: Note, next up: CCCCCC/C=C\CCCCCCCC(=O)OC[C@H](COP(=O)(O)O[C@H]1C(O)C(O)C(O)[C@@H](O)C1O)OC(=O)CCCCCCCCC/C=C\CCCCCCCCCC (stereo partly specified) [PI(38:2)]
A: 306

Q: Moving on to the next molecule: CCCCCCCC/C=C\CCCCCCCC(=O)OC[C@@H](COC(=O)CCCCCCCCCCC)OC(=O)CCCCCCCCCCC [TG(42:1)]
A: 288.5
